B1: Calcium-binding protein 2, residues 155 to 219; numbered along this chain, Q9NPB3 (parent)
chain: RELRDAFREFDTNGDGRISVGELRAALKALLGERLSQREVDEILQDVDLNGDGLVDFEEFVRMMS

Variants of: B1
Experiment: abundance fitness (aPCA) (normalised: wild type 0, dead -1); higher = more abundant; growth selection in yeast, the domain comes from the species named
Conditions: Homo sapiens
Mark No for abundance fitness values under -0.2, and Yes for everything at or above.

// known answers, use as guide
> print(dat)
   change  assigned.category
1    D52S                Yes
2     E2W                 No
3    E59F                Yes
4     E9F                 No
5    N13G                 No

Q: State whether the measured abundance fitness reaches -0.2, counting equality as reaching it, for "S19Y"
Result: No

Q: Hi team, for "M64G" , is the recorded abundance fitness at or above -0.2?
Result: Yes

Q: Decide: abundance fitness of "E9H" >= -0.2?
Result: No

Q: Please check the record "G32C" and state if its abundance fitness is at or above -0.2.
Result: No

Q: Hi, just wondering whether "D41H" shows abundance fitness of -0.2 or higher.
Result: No

Q: Reported abundance fitness at or above -0.2? "V40S"
Result: Yes

Q: Does abundance fitness meet or surpass -0.2 for "A6W" ?
Result: Yes

Q: Quick check, abundance fitness >= -0.2? "A26F"
Result: Yes

Q: Assess whether reported abundance fitness for "M64Y" sits at -0.2 or higher.
Result: Yes

Q: Quick check, abundance fitness >= -0.2? "D41C"
Result: Yes

Q: Is abundance fitness for "F7I" at or above -0.2?
Result: No

Q: Quick check: does "A26K" have abundance fitness greater than or equal to -0.2?
Result: No

Q: Dear colleague, could you confirm whether "R34E" has abundance fitness at or above -0.2?
Result: Yes

Q: Evaluate "D5H" : abundance fitness at minimum -0.2?
Result: Yes

Q: In plain terms: is recorded abundance fitness at least -0.2 for "R8Q" ?
Result: Yes

Q: Is abundance fitness for "E59M" at or above -0.2?
Result: Yes

Q: Does the variant "R62S" have recorded abundance fitness that is -0.2 or more?
Result: Yes

Q: Does abundance fitness meet or surpass -0.2 for "E58W" ?
Result: No
